- Test system: SK-MEL-28 melanoma
- Assay Protocol: NCI tumour cell line growth inhibition, 48 h
Test Readout: TGI

Challenge: What value of TGI has been reported for the following compound? CC(C)(C)OC(=O)NCCC1SC2C=CC1C2 (stereo unspecified)
Response given: > 100 µM

Challenge: What value of TGI has been reported for the following compound? [N-]=[N+]=Nc1cc(=O)n(-c2ccccc2)c2ccccc12
Response given: > 100 µM

Challenge: What value of TGI has been reported for the following compound? CCO/C(O)=C(/C(=N)N1CCOCC1)C(=O)Nc1ccc(Cl)cc1
Response given: > 100 µM

Challenge: What value of TGI has been reported for the following compound? CCCCCCc1cc2c(C)c(C)c(=O)oc2cc1OCCCOc1cc2oc(=O)c(C)c(C)c2cc1CCCCCC
Response given: > 100 µM

Challenge: What value of TGI has been reported for the following compound? CC1CC[C@@]23CCC4(C)[C@@](C=CC5[C@@]6(C)CCC(=O)C(C)(C)C6CC[C@]54C)(OC2=O)[C@@H]3[C@H]1C (stereo partly specified)
Response given: > 100 µM

Challenge: What value of TGI has been reported for the following compound? Cc1ccc(-n2c(O)c(C=N)c(=O)n(-c3ccc(C)cc3)c2=O)cc1
Response given: > 100 µM

* * *

Exercise: for every item that follows, state its recorded TGI.
- Test system: EKVX NSCLC
- Assay Protocol: NCI tumour cell line growth inhibition, 48 h

Challenge: What value of TGI has been reported for the following molecule? CCCCCC(=O)Nc1n[nH]nc1C#N
Response given: > 100 µM

Challenge: What value of TGI has been reported for the following molecule? COC(=O)[C@]12CC[C@H]3CN(C(=O)OCc4ccccc4)[C@H]([C@H]31)[C@H](c1ccccc1)N2
Response given: > 100 µM

Challenge: What value of TGI has been reported for the following molecule? O=c1cc(-c2ccccc2)nc(-n2[nH]c3c(c2=O)CCCC3)[nH]1
Response given: > 100 µM

* * *

Exercise: for every item that follows, state its recorded TGI.
- Test system: SK-OV-3 ovarian
- Assay Protocol: NCI tumour cell line growth inhibition, 48 h
Kindly answer with a numeric value in µM, unit omitted.

Challenge: What value of TGI has been reported for the following molecule? C=C1CC2(CC(c3ccccc3OC)OC(c3ccccc3OC)C2)OC1=O (stereo not given)
Response given: 25.5

Challenge: What value of TGI has been reported for the following molecule? S=C(S)NCCNC(=S)S.[Cu+2]
Response given: 23.1

* * *

- Tested on: SK-OV-3 ovarian
- Assay Protocol: NCI tumour cell line growth inhibition, 48 h
Exercise: for every item that follows, state its recorded TGI.

Challenge: Field: TGI (SK-OV-3 ovarian). Entry: C[C@H](C(=O)C12CC3CC(CC(C3)C1)C2)[C@H](O)c1ccccc1
Response given: > 100 µM

Challenge: Field: TGI (SK-OV-3 ovarian). Entry: O=C(Cc1n[nH]c(=O)c2ccccc12)OCc1c(Cl)cccc1Cl
Response given: > 100 µM

Challenge: Field: TGI (SK-OV-3 ovarian). Entry: OCCCC(O)(c1ccccc1)c1ccccc1
Response given: > 100 µM

Cited source: PubChem BioAssay (NCI)
